Molecular target: T1, human ROR1 on the surface of tumor cells (human, UniProt Q01973 30-937)
T1 construct: whole, on cells; also called ROR1 on the cell surface; tumor cell ROR1
T1 sequence (Q01973 30-937): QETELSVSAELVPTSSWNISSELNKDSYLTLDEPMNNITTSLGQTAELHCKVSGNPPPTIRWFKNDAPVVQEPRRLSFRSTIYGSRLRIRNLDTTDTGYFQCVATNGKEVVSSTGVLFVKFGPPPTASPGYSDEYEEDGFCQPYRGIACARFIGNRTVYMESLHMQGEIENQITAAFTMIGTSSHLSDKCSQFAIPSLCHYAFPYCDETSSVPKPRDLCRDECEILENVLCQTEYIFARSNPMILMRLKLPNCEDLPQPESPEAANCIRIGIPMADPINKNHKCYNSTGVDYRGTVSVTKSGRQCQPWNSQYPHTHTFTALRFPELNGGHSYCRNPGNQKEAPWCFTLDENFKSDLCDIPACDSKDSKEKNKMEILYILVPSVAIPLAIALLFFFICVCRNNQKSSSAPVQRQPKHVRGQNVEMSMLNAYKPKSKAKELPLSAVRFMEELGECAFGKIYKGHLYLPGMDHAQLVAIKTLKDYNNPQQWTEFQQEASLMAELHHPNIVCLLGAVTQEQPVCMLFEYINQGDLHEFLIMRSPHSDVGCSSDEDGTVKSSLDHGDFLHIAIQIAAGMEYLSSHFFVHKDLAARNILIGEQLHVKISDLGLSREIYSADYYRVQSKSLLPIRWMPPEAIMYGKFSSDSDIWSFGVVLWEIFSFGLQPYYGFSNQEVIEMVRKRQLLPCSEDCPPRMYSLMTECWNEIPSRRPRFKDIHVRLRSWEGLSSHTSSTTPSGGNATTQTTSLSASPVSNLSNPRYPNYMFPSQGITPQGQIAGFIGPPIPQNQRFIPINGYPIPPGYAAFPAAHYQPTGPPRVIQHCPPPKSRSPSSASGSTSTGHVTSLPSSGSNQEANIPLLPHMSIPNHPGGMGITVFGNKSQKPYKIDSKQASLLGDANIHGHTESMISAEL
Assay: FACS, NCI-H226 cells
value.type: pEC50
Please treat pEC50 as minus the base-10 logarithm of the molar concentration.

In plain terms, mAb003c (antibody, V domains shown, Human-mouse chimeric) VH: EVQLVESGGGLVKPGGSLKLSCAASGFTFSSYAMSWVRQTPEKRLEWVATISDGGSYTYYPDSVKGRFTISRDNAKNNLYLQMSHLKSEDTDMYYCVRGGYYYNLYAMDYWGQGTSVTVSS VL: DIVLTQSPASLAVSLGQRAIISCKASQSVSFAGTSLMHWYQQKPGQQPKLLIYRASNLEAGVPTRFSGSGSRADFTLNIHPVEEDDAATYYCQQSGEYPWTFGGGTKLEIK has a documented pEC50 of 9.12

Hey, just so you know, these numbers are from patent EP4585616A1.
